Molecular target: GID4 (Uniprot ID: Q81VV7, residues 124-289) (Homo sapiens, UniProt Q8IVV7)
Sequence (Q8IVV7 124-289): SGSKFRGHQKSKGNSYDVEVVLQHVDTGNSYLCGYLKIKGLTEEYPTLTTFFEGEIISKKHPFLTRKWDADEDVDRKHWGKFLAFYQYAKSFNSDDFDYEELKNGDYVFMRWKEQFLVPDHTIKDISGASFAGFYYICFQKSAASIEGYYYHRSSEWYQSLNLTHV
pIC50: −log10 of the molar value.
MEASURED_ENDPOINT: pIC50

Task: Recorded pIC50 of CC(C)c1cc(N2CCCC(c3cnc4ncccn34)C2)nc(N)n1 (centres unmarked) , please.
Output: > 6.30

Task: Recorded pIC50 of CNc1cc(N2CCN(C)[C@@H](c3ccccc3Br)C2)nc(N)n1 (stereo in doubt) , please.
Output: > 6.30

Task: Recorded pIC50 of Nc1nc(C2CC2)cc(N2CCN[C@@H](c3ccccc3Br)C2)n1 (stereo in doubt) , please.
Output: 5.30 to 6.30

Task: Recorded pIC50 of CN(C)CCNC(=O)c1cc2cc(-c3ccc4ccnc(N)c4c3)ccc2cn1 , please.
Output: > 6.30

Task: Recorded pIC50 of CNc1nc(C)cc(Nc2cccc(-c3cnccn3)c2)n1 , please.
Output: < 5.30

Task: Recorded pIC50 of CC(C)c1cc(N2CCN(C)C(c3ccccc3Br)C2)nc(N)n1 (single isomer, unassigned) , please.
Output: 5.30 to 6.30

Task: Recorded pIC50 of Nc1nccc2c(O)cc(-c3cccc(C(=O)N4CCCC4)c3)cc12 , please.
Output: < 5.30

Task: Recorded pIC50 of COC(=O)c1ccc(Br)c(C2CN(c3cc(N)nc(N)n3)CCN2)c1 (centres unmarked) , please.
Output: > 6.30

====

Field: pIC50. Provide a value for each of the compounds that follow.
Molecular target: GID4 (Uniprot ID: Q81VV7, residues 124-289) (Homo sapiens)
Sequence (Q8IVV7 124-289): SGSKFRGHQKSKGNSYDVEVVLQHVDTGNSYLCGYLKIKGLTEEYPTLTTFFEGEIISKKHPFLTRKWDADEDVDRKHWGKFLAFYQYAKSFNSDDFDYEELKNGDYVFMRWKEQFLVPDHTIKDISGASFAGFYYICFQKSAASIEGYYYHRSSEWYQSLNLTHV
pIC50: −log10 of the molar value.

Task: Recorded pIC50 of Nc1nc(N2CCCC(c3ccn[nH]3)C2)c2cc[nH]c2n1 (stereo not drawn) , please.
Output: < 5.30

Task: Recorded pIC50 of CC(C)c1cc(N2CCNC(c3cc(C(=O)NCCN(C)C)ccc3Br)C2)nc(N)n1 (racemic) , please.
Output: > 6.30

Task: Recorded pIC50 of CN(C)CCCNC(=O)c1ccc(-c2cc3cccnc3c(O)c2F)cc1 , please.
Output: > 6.30

Task: Recorded pIC50 of CNc1cc(N2CCO[C@@H](c3ccccc3)C2)nc(N)n1 (racemic) , please.
Output: 5.30 to 6.30

Task: Recorded pIC50 of Nc1nc(N2CCCC(c3ccn[nH]3)C2)c2ccccc2n1 (stereo not drawn) , please.
Output: < 5.30

Task: Recorded pIC50 of NC(=O)CCC1CCCN(c2nc(N)nc3c2CSC3)C1 (stereo not drawn) , please.
Output: < 5.30

Task: Recorded pIC50 of Nc1cc(N2CCCC(c3cnc4ccccn34)C2)nc(N)n1 (single isomer, unassigned) , please.
Output: < 5.30

Task: Recorded pIC50 of CN1CCN(C(=O)c2cccc(-c3ccc4ccnc(N)c4c3)c2)CC1 , please.
Output: < 5.30

Task: Recorded pIC50 of CN(C)CCCNC(=O)c1ccc(-c2cc3cccnc3c(O)c2Cl)cc1 , please.
Output: > 6.30
